Reported values of pIC50 for individual entries
- MEASUREMENT TARGET: Cannabinoid receptor 2 (Rattus norvegicus, UniProt Q9QZN9)
- Sequence (Q9QZN9 whole entry): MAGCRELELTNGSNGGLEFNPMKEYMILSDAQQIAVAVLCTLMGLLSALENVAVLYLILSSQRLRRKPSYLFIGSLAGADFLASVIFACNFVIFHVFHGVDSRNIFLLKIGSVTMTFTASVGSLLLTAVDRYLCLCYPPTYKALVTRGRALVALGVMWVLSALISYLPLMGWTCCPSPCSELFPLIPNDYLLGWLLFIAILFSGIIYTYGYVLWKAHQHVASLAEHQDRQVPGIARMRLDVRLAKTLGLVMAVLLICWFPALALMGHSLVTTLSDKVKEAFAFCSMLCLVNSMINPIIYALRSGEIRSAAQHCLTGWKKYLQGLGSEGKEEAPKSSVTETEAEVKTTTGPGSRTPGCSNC
- PROTOCOL SUMMARY: Displacement of [3H]WIN-55212-2 from CB2 receptor in Sprague-Dawley rat spleen membrane
- Format: cell membranes
pIC50: −log10 of the molar value.

{"MOLECULE": "c1ccc(Cc2noc(-c3cn(CCN4CCOCC4)c4ccccc34)n2)cc1", "pIC50": 5.96}
{"MOLECULE": "c1ccc(-c2noc(-c3cn(CCN4CCOCC4)c4ccccc34)n2)cc1", "pIC50": 5.39}

---

- MEASUREMENT TARGET: Cannabinoid receptor 2 (Homo sapiens, UniProt P34972)
- Sequence (P34972 whole entry): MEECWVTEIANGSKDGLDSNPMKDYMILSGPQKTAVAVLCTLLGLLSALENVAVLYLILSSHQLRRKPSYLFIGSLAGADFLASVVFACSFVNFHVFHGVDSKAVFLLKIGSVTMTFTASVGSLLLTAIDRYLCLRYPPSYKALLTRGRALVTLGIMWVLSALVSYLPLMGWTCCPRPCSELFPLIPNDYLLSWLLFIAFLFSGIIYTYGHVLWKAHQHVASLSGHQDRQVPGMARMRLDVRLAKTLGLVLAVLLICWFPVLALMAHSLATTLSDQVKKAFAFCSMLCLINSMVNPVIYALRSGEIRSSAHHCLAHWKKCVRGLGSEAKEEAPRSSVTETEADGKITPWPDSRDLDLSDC
pKi: −log10 of the molar value.

{"MOLECULE": "Cc1c(CCN2CCOCC2)c2ccccc2n1C(=O)c1cccc2ccccc12", "pKi": 8.07}

---

- MEASUREMENT TARGET: Cannabinoid receptor 1 (Homo sapiens)
- Sequence (P21554 whole entry): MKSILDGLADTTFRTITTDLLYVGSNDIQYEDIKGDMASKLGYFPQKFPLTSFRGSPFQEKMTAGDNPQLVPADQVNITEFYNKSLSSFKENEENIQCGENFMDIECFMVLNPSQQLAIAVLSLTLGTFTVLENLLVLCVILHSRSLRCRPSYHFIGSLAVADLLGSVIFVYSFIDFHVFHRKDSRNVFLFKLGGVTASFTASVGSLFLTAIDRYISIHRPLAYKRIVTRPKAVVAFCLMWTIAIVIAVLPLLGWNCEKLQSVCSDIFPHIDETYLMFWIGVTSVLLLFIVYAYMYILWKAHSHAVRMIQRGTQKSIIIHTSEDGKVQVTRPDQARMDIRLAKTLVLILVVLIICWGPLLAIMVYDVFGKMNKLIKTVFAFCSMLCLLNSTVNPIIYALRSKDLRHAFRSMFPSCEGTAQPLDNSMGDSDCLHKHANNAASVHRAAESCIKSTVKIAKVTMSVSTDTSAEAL
- PROTOCOL SUMMARY: Agonist activity at CB1 receptor
pIC50: −log10 of the molar value.

{"MOLECULE": "COc1ccc(C(=O)c2c3n(c4ccccc24)C(CN2CCOCC2)CC3)cc1 (configuration not stated)", "MEASUREMENT TARGET": "Cannabinoid receptor 1 (Homo sapiens)", "pIC50": 9.49}
{"MOLECULE": "COc1ccc(C(=O)c2c(C)n(CCN3CCOCC3)c3ccccc23)cc1 [PRAVADOLINE]", "MEASUREMENT TARGET": "Cannabinoid receptor 1 (Homo sapiens)", "pIC50": 6.34}
